Listing: pIC50 of selected compounds
MEASURED_TARGET: PRMT5 (Homo sapiens, UniProt O14744)
Construct: purchased Viva (custom protein)
Sequence (O14744 whole entry): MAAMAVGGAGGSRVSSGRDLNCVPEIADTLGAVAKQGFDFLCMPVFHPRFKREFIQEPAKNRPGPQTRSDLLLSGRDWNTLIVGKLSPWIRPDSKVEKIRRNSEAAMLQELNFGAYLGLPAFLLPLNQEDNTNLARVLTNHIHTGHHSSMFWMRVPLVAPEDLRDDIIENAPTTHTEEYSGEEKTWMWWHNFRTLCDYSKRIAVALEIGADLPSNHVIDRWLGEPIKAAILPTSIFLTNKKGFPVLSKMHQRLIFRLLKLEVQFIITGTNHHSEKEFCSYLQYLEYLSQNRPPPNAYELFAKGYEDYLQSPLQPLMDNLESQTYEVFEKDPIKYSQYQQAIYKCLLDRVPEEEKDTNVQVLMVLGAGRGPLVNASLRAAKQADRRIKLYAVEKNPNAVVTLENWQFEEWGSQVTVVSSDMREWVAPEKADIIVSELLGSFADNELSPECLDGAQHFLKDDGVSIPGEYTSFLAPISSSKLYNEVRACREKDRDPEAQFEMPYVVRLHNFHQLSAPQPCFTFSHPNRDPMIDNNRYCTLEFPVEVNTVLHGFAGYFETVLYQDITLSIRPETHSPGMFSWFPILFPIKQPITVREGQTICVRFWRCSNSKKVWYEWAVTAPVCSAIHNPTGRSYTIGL
Sequence (Q9BQA1 whole entry partner): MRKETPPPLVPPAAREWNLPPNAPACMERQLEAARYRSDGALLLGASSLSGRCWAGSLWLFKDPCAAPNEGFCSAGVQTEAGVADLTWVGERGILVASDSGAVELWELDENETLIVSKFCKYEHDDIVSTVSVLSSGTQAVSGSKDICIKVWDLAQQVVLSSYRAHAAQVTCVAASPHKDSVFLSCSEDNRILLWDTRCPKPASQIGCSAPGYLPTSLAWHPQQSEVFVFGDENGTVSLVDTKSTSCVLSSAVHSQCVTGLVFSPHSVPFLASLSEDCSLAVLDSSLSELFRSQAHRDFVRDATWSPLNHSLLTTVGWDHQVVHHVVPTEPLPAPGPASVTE
EXPERIMENT_SUMMARY: PRMT5 biochemical IC50 assay with SAM as cofactor
ASSAY_CONDITIONS: PRMT5, SAM as cofactor; read-out: SAM IC50
pIC50: −log10 of the molar value.

Solved cases (5 shown):
COMPOUND: CC(=O)N[C@H]1CCN(C(=O)C(=O)Nc2cnc(N)c(C)c2)[C@@H](c2ccccc2)C1 (racemic) [Compound 831]
OBSERVED_MEASUREMENT: < 6.30

COMPOUND: C[C@H]1CC[C@H](c2ccc3sc(CCN4CCCC4)nc3c2)N(C(=O)C(=O)Nc2cnc(N)c(C3COC3)c2)C1 [Compound 1379]
OBSERVED_MEASUREMENT: 6.30 to 7.30

COMPOUND: Cc1cc(NC(=O)C(=O)N2C[C@H](C)CC[C@H]2C)cnc1N (racemic) [Compound 158]
OBSERVED_MEASUREMENT: 6.30 to 7.30

COMPOUND: Cc1cc(NC(=O)C(=O)N2C[C@H](C)CC[C@H]2c2ccc3c(c2)CCC(=O)N3)cnc1C(F)(F)F (racemic) [Compound 650]
OBSERVED_MEASUREMENT: 6.30 to 7.30

COMPOUND: Cc1cc(NC(=O)C(=O)N2C[C@@H](C)C(F)(F)C[C@@H]2c2ccccc2)cnc1N (single isomer, unassigned) [Compound 713]
OBSERVED_MEASUREMENT: < 6.30

Provide measured pIC50 value, entry: CCc1cc(NC(=O)C(=O)N2C[C@H](C)[C@H](OC)C[C@H]2c2ccc(N3CCN(C)CC3)cc2)cnc1N (single isomer, unassigned) [Compound 1089]
6.30 to 7.30

---

Listing: pIC50 of selected compounds
MEASURED_TARGET: PRMT5 (Homo sapiens, UniProt O14744)
Construct: purchased Viva (custom protein)
EXPERIMENT_SUMMARY: PRMT5 biochemical IC50 assay with MTA as cofactor
ASSAY_CONDITIONS: PRMT5, MTA as cofactor; read-out: MTA IC50
pIC50: −log10 of the molar value.

Solved cases (3 shown):
COMPOUND: C[C@@H]1CC[C@H](c2ccccn2)N(C(=O)C(=O)Nc2cncc(C(N)=O)c2)C1 (racemic) [Compound 584]
MEASURED_TARGET: PRMT5 (Homo sapiens, UniProt O14744)
pIC50: 6.30 to 7.30
//
COMPOUND: Cc1cc(NC(=O)C(=O)N2C[C@H](C)CC[C@H]2c2cccnc2)cnc1N (single isomer, unassigned) [Compound 301]
MEASURED_TARGET: PRMT5 (Homo sapiens, UniProt O14744)
pIC50: > 7.30
//
COMPOUND: Cc1cncc(NC(=O)C(=O)N2C[C@@H](C)CC[C@H]2c2cccc(F)c2)c1 (single isomer, unassigned) [Compound 1080]
MEASURED_TARGET: PRMT5 (Homo sapiens, UniProt O14744)
pIC50: < 6.30

Provide measured pIC50 value, entry: C[C@H]1CC[C@H](c2ccc(N)nc2)N(C(=O)C(=O)Nc2cncc(C(N)=O)c2)C1 (single isomer, unassigned) [Compound 493]
< 6.30

Provide measured pIC50 value, entry: CCc1cc(NC(=O)C(=O)N2C[C@@H](C)CC[C@@H]2c2ccc(N3CCN(C)[C@@H](C)C3)nc2)cnc1N (single isomer, unassigned) [Compound 1289]
> 7.30

Provide measured pIC50 value, entry: CNS(=O)(=O)c1cccc([C@@H]2CC[C@@H](C)CN2C(=O)C(=O)Nc2cnc(N)c(C)c2)c1 (racemic) [Compound 691]
> 7.30
